# Assay Notes: Cyclic voltammetry of Cu(II) bis(thiosemicarbazonato) complexes (half-wave potentials and peak separations)
# Type: physicochemical
# Setup Conditions: cyclic voltammogram; scan rate 0.1 V s^−1; potentials relative to SCE; DMF, glassy carbon electrode
Property Label: Cu^III/Cu^II E1/2
Report as: number unit

Lab note: CN=C([S-])N/N=C(C)/C(C)=N/NC([S-])=NC.[Cu+2] gave Cu^III/Cu^II E1/2 of 0.75 V
